# measured_target: Renin recombinant human enzyme (Homo sapiens, UniProt P00797)
# Sequence (P00797 67-406): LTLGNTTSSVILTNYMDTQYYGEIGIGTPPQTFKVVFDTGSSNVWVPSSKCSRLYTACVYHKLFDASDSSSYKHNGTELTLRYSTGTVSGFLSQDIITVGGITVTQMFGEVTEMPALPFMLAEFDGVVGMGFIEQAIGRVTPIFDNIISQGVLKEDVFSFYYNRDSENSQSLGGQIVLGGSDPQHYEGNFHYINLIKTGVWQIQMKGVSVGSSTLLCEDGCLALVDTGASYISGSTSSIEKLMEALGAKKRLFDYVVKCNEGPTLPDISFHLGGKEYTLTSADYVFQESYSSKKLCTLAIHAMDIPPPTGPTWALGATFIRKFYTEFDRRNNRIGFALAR
# test_protocol: Renin FRET assay
# Format: biochemical
metric_name: pIC50
Keep it numeric: pIC50 is minus log10 of the concentration in mol/L.

// returns reported pIC50 for input NC1=N[C@@]2(c3cc(NC(=O)c4ccc(F)cn4)ccc3F)COC[C@H]2CS1 [LY2886721, reference compound]
4.85
